remaining at 2 h, 1 µM for assorted compounds
Tested on: Pancreatin
Test: Protease stability in simulated intestinal fluid (Pancreatin-SIF, FaSSIF)
Assay type: in vitro ADME
Conditions: 120 min, 1 μM peptide, 37° C., read-out: FaSSIF 120 (min), remaining percent of peptide
Starred links: 1 amine or outer side, 2 acyl side, 3 side chain; linkers in the order of their positions; H or OH if unused. Positions of bridges follow the written chain, without caps; N, C: chain ends. Non-standard residues stand in square brackets, D forms with d. Residues, ends and D or L forms follow the SMILES beside them. *: point of attachment. X3 = CN(CCCCC(=O)N[C@@H](CS[*:2])C(=O)[*:1])[*:3]; X6 = O=C(CCC(=O)[*:3])N[C@@H](CS[*:2])C(=O)[*:1]; Trp(7-Me) = Cc1cccc2c(C[C@H](N)C(=O)O)c[nH]c12; 2Nal = N[C@@H](Cc1ccc2ccccc2c1)C(=O)O; AEF = NCCOc1ccc(C[C@H](N)C(=O)O)cc1; 3Pal = N[C@@H](Cc1cccnc1)C(=O)O; Lys(Me) = CNCCCC[C@H](N)C(=O)O; αMeL = CC(C)C[C@](C)(N)C(=O)O; Me2NCH2CH2 = CN(C)CC*; Aib = CC(C)(N)C(=O)O; Sar = CNCC(=O)O
Give just the number in %; leave the unit off.

| compound | measured metric | value reported |
| --- | --- | --- |
| CC(=O)N[C@H]1CCCCNC(=O)[C@@H]2CSSC[C@H](NC(=O)[C@H](CCC(N)=O)NC(=O)[C@H](Cc3c[nH]c4ccccc34)NC1=O)C(=O)N[C@@H](Cc1ccc(OCCN)cc1)C(=O)N[C@@H](Cc1ccc3ccccc3c1)C(=O)NC(C)(C)C(=O)N[C@H](C(=O)N[C@@H](C)C(=O)N[C@H](CC(C)C)C(N)=O)CCC(=O)N(C)CCCCC(=O)N2 [compound 19] (Ac-KWQC[AEF][2Nal][Aib]EA[dL]-NH2; linker 1-4-8 via X3) | remaining at 2 h, 1 µM | 81 |

Ask: Indicate the recorded remaining at 2 h, 1 µM value for this compound: CC(=O)N[C@H]1CCCCNC(=O)[C@@H]2CSSC[C@H](NC(=O)[C@H](CC(C)C)NC(=O)[C@H](Cc3c[nH]c4c(C)cccc34)NC1=O)C(=O)N[C@@H](Cc1ccc(OCCN(C)C)cc1)C(=O)N[C@@H](Cc1ccc3ccccc3c1)C(=O)N[C@@](C)(CC(C)C)C(=O)N[C@H](C(=O)N[C@@H](CC(N)=O)C(=O)N[C@@H](Cc1cccnc1)C(=O)N(C)CC(N)=O)CCCCN(C)C(=O)CCC(=O)N2 [compound 68] (Ac-K[Trp(7-Me)]LCY(Me2NCH2CH2)[2Nal][αMeL][Lys(Me)]N[3Pal][Sar]-NH2; linker 1-4-8 via X6)
Result: 91

meta.source: patent US20260258084A1
